Biological target: DLG4_2, P78352
Sequence (P78352 155-259): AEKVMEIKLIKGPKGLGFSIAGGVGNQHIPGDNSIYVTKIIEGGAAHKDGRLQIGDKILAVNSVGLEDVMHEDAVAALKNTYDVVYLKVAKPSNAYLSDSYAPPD
Experiment: holdup assay
Parameters: key: below the threshold = too weak to quantify, mostly under pKd 3.1 to 4
Conditions: plain residues with an end cap or a label only (N-terminal biotin on a linker: ado-ado)
Catalogue of pKd values
When you answer, write just the number.

binder: PSHPRLQTHV [KIRREL2, Q6UWL6]
value measured: 4.48

binder: QLSFNTDTLC [ABCA2, Q9BZC7]
value measured: 3.61

binder: GTGYDRKDYV [CLDN3, O15551]
value measured: 3.63

binder: ILRKSTTTTV [PRR16, Q569H4]
value measured: 5.2

binder: DTKNYKQTSV [CRIPT, Q9P021]
value measured: 4.9

Query string: Which pKd value belongs to GIKKITSTAL [RPS6KA3, P51812] ?
Result string: 4.18

Query string: Which pKd value belongs to NISYRRESAI [KCNJ4, P48050] ?
Result string: 4.17

Query string: Which pKd value belongs to SLNANEVEWF [RNF130, Q86XS8] ?
Result string: 3.51

Query string: Which pKd value belongs to AAVENKVTDL [PLXNB1, O43157] ?
Result string: 4.2
